meta.source: PubChem BioAssay AID777

assayed.system: Cytochrome P450 2C9 (Homo sapiens) (UniProt P11712)
Sequence (P11712 whole entry, looked up): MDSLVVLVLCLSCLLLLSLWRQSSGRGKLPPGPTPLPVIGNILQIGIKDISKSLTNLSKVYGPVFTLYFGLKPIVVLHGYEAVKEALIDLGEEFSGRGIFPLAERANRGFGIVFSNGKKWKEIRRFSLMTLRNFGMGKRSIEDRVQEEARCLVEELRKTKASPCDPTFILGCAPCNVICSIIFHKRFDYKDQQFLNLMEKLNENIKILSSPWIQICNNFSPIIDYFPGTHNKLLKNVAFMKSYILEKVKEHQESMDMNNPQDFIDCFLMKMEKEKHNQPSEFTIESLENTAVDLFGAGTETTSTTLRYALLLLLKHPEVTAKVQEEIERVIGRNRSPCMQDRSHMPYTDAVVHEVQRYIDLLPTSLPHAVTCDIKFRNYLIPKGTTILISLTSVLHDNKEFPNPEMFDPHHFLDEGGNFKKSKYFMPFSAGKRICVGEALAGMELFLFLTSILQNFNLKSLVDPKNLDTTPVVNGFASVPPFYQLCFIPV
assay.summary: blockers of cytochrome P450 2C9 activity – biochemical, luminescence, ADME assay, primary screen (AID 777)
run.parameters: CYP2C9 Supersomes, luciferin-H conversion, at 5 µM, active compounds read high
The campaign covered roughly 96,000 compounds. About 19,000 (20%) were called active. The list is a sample of the results.
Class membership depends on inhibition alone; the intervals are low range: < 10%; mid range: ≥ 10% and < 20%; high range: ≥ 20%

>  <molecule>
C=CCn1c(N)c(C(=O)OCC(C)C)c2nc3ccccc3nc21

>  <classification>
high range

$$$$
>  <molecule>
CCOC(=O)c1[nH]c2ccc(OC)cc2c1NC(=O)CCN1CCN(Cc2ccccc2)CC1

>  <classification>
mid range

$$$$
>  <molecule>
CCNC(=O)c1sccc1-n1cccc1

>  <classification>
mid range

$$$$
>  <molecule>
O=C1CC(c2ccccc2)C(=O)N1c1cccc(O)c1 (stereo not given)

>  <classification>
high range

$$$$
>  <molecule>
Cc1ccc(S(=O)(=O)c2c(N)n(C)c3nc4ccccc4nc23)cc1

>  <classification>
mid range

$$$$
>  <molecule>
CC(=O)Oc1cccc(N2C(=O)C3CC=C(Cl)CC3C2=O)c1 (stereo not given)

>  <classification>
low range

$$$$
>  <molecule>
CCN1C(=O)CS/C1=N\c1nccs1

>  <classification>
mid range

$$$$
>  <molecule>
CN(CCCC(=O)Nc1nccs1)S(=O)(=O)c1ccc(Cl)cc1

>  <classification>
high range

$$$$
>  <molecule>
COc1ccc(OCC(=O)N2CCN(C(=O)COc3ccccc3)CC2)cc1

>  <classification>
low range

$$$$
>  <molecule>
CCC(C)(C(=O)NC1CCCCC1)N(C)C(=O)c1ccc2c(c1)OCO2 (stereo not given)

>  <classification>
low range

$$$$
>  <molecule>
CCCC(=O)Nc1ccc(Cl)c(NC(=O)c2ccc(Br)o2)c1

>  <classification>
mid range

$$$$
>  <molecule>
NC(=O)C1CC=CCC1C(=O)OCC(Cl)=C(Cl)Cl (stereo not given)

>  <classification>
low range

$$$$
>  <molecule>
CCOC(=O)NNC(=O)c1ccc(Cl)cc1

>  <classification>
low range

$$$$
>  <molecule>
CSc1ncccc1C(=O)OCC(=O)N1CCOCC1

>  <classification>
low range

$$$$
>  <molecule>
CCc1ccc(-c2nnn(Cc3nn[nH]n3)n2)cc1

>  <classification>
high range

$$$$
>  <molecule>
N#CCCn1cnc2ccccc21

>  <classification>
low range

$$$$
>  <molecule>
COc1ccc(NC(=O)c2c(SC)nsc2SC)cc1

>  <classification>
mid range

$$$$
>  <molecule>
O=C(CCSCCc1ccccn1)Nc1nccs1

>  <classification>
high range

$$$$
>  <molecule>
COc1ccc(S(=O)(=O)NC2(C(F)(F)F)N=C3SCCN3C2=O)cc1 (stereo not given)

>  <classification>
low range

$$$$
>  <molecule>
CC1(C)Cc2cccc(OCC(=O)Nc3nccs3)c2O1

>  <classification>
high range

$$$$
>  <molecule>
COc1ccc(OCCCC(=O)Oc2ccc(OC)cc2)cc1

>  <classification>
mid range

$$$$
>  <molecule>
O=C(OCN1C(=O)c2ccccc2C1=O)/C(=C\c1ccco1)NC(=O)c1ccccc1

>  <classification>
mid range

$$$$
>  <molecule>
N#CCSc1nc2c(c(=O)n1Cc1ccccc1)C1(CCCC1)Cc1ccccc1-2

>  <classification>
high range

$$$$
>  <molecule>
O=C(CN1C(=O)COc2ccccc21)NCCN1CCc2ccccc2C1

>  <classification>
high range

$$$$
>  <molecule>
CC1(C)CCCC2=C1CC1C(=O)N(c3ccccc3)C(=O)C1C2 (stereo not given)

>  <classification>
high range

$$$$
